Literature survey of IC50 (system: Aurora kinase B (Homo sapiens, UniProt Q96GD4)).

Solved entries (count: 2):
Any idea what IC50 was measured for CCNC(=O)N1CC2CC(Nc3nc(Nc4cnn(C)c4)ncc3Cl)CC2C1 (stereo not drawn) ?
2 nM

Any idea what IC50 was measured for CN(C)C(=O)CN1CCC(Oc2ccc(-c3n[nH]c4ccc(C(=O)NC(c5ccccc5)C5CC5)cc34)cc2)CC1 (stereo not drawn) ?
≤ 5000 nM

Continuing:
Any idea what IC50 was measured for COc1ccc2c(c1)C(=Cc1ccc3c(/C=C/c4ccccn4)n[nH]c3c1)C(=O)N2 (mixture of isomers) ?
< 5000 nM

----------
pIC50: −log10 of the molar value.
Literature survey of pIC50 (system: Aurora kinase B (Homo sapiens)).

Any idea what pIC50 was measured for CN1CCC(Oc2ccc(-c3n[nH]c4ccc(C(=O)NC(c5ccccn5)C5CCCC5)cc34)cc2)CC1 (centres unmarked) ?
≥ 5.30

Any idea what pIC50 was measured for CN1CCC(Oc2ccc(-c3n[nH]c4ccc(NC(=O)C(c5ccsc5)N5CCCC5)cc34)cc2N(C)C)CC1 (centres unmarked) ?
≥ 5.30

Any idea what pIC50 was measured for COCCOc1cc2nccc(Sc3ccc(Nc4nnc(-c5ccc(Cl)cc5)c5ccccc45)cc3)n2n1 ?
> 7.00

Any idea what pIC50 was measured for NC(=O)[C@H]1[C@@H]2C[C@H]3CNC(=O)Cn4cnc(c4)Nc4ncc(F)c(n4)N[C@@H]1[C@@H]3C2 ?
5.20 to 6.00

Any idea what pIC50 was measured for Clc1ccc(-c2nnc(Nc3ccc(Sc4ccnc5cc(C6CC6)nn45)cc3)c3ccccc23)cc1 ?
> 7.00

Any idea what pIC50 was measured for O=C(Nc1ccc2[nH]nc(-c3ccc(N4CCC(O)CC4)cc3)c2c1)C(c1ccsc1)N1CCCCC1 (centres unmarked) ?
≥ 5.30

Any idea what pIC50 was measured for COc1cc2c(Nc3cnc(NC(=O)c4ccccc4)nc3)ccnc2cc1OCC[C@H](N)C(=O)O ?
5.30 to 5.70

Any idea what pIC50 was measured for N#Cc1cc(CN2CCN(C(=O)c3cccc(Cl)c3F)CC2)nc(Nc2nccs2)c1 ?
5.85

Any idea what pIC50 was measured for O=C(O)CCc1c(/C=C2\C(=O)Nc3ccc(S(=O)(=O)N4CCOCC4)cc32)[nH]c2c1C(=O)CCC2 ?
5.73

Any idea what pIC50 was measured for COc1ccc2c(c1)C(=Cc1ccc3c(/C=C/C(=O)N4CCN(C)CC4)n[nH]c3c1)C(=O)N2 (mixture of isomers) ?
> 5.30

Continuing:
Any idea what pIC50 was measured for Cc1cc(Nc2cc(N3CCN(C)CC3)nc(-c3cccc(-c4ccccc4)c3)n2)n[nH]1 ?
≥ 6.00

Any idea what pIC50 was measured for Cc1cc(Nc2cc(C)[nH]n2)nc(N2CC[C@H](NC(=O)O[C@@H](C)C(F)(F)F)C2)n1 ?
6.72

Any idea what pIC50 was measured for Cc1cc(Nc2cc(C)[nH]n2)nc(CN2C[C@@H]3C[C@H]2CN3C(=O)c2cccc(Cl)c2F)n1 ?
6.52

Any idea what pIC50 was measured for CC(C)CS(=O)(=O)N[C@H]1COC2C1OC[C@H]2Nc1nc(Nc2cnn(C)c2)ncc1Cl (some centres unmarked) ?
7.54

Any idea what pIC50 was measured for NC(=O)c1cccc2c(N[C@H](CN3CCC3)c3ccc(Cl)c(C(F)(F)F)c3)ncnc12 ?
7.00

Any idea what pIC50 was measured for CCOC(=O)CCc1c(/C=C2\C(=O)Nc3ccc(/N=C/c4ccsc4)cc32)[nH]c2c1C(=O)CCC2 ?
6.06

Any idea what pIC50 was measured for COc1ccccc1C(NC(=O)c1ccc2[nH]nc(-c3ccc(OC4CCN(C)CC4)cc3)c2c1)C1CC1 (centres unmarked) ?
≥ 5.30
